Entry source: ChEMBL document CHEMBL1141998

Experimental system: Dipeptidyl peptidase 4 (Rattus norvegicus)
Sequence (P14740 whole entry): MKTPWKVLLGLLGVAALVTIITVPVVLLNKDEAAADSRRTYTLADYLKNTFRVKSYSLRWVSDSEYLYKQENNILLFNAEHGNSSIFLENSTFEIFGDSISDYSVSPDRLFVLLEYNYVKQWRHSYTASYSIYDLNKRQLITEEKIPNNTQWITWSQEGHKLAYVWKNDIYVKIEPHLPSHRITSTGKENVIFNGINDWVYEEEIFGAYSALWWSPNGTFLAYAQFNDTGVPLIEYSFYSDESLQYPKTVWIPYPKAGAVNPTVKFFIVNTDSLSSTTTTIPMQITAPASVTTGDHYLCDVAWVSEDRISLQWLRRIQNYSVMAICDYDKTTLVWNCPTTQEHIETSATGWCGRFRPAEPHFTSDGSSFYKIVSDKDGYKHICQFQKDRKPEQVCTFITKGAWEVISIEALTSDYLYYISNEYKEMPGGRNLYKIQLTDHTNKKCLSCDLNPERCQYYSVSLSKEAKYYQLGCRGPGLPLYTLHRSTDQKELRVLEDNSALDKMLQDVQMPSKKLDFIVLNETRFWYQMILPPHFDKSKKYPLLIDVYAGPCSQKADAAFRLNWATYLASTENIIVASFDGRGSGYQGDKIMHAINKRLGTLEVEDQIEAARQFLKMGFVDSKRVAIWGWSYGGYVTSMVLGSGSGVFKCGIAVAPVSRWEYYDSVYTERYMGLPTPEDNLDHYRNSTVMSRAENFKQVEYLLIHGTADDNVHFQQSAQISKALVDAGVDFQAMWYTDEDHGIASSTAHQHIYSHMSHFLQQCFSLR
Protocol notes: Inhibitory activity against dipeptidyl peptidase IV (DP-IV)
Observed property: IC50 (µM)

CCC(C)[C@H](N)C(=O)N1CCCN1C(=O)Nc1ccc([N+](=O)[O-])c(F)c1 (stereo not given in full); 2.27
CCC(C)[C@H](N)C(=O)N1CCCN1C(=O)Nc1ccc([N+](=O)[O-])c(Cl)c1 (stereo not given in full); 4.71
CC(C)[C@H](N)C(=O)N1CCCN1C(=O)Nc1cccc([N+](=O)[O-])c1; 2.1

a = CCC(C)[C@H](N)C(=O)N1CCCN1C(=O)Nc1ccc([N+](=O)[O-])cc1 (stereo not given in full)
b = CCC(C)[C@H](N)C(=O)N1CCCN1C(=O)Nc1ccccc1 (stereo not given in full)
Exercise: Hi, I'm comparing two records. Which one has the lower IC50, a or b ? State your choice using its label.
Solution: a
